All values here come from the RNAGym collection of RNA variant scans (doi:10.1126/science.aae0568).

For each entry below, report its yeast fitness value.
B1: tRNA (parent)
chain: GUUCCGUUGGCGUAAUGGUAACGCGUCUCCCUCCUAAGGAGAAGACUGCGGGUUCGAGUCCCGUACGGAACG

variants of: B1; assay: yeast fitness relative to wild type (ratio to wild type); higher = fitter; tRNA-Arg(CCU), competitive growth, 37 C, YPD
Variants at the floor of the assay were thinned out.

q: Endpoint output: yeast fitness of G10A C33U . Value?
a: 0.592

q: Return reported yeast fitness; argument: U32C G56A
a: 1.07

q: May I ask what yeast fitness has been recorded for U16A C24A C30G C34U G56C ?
a: 0.634

q: Entry C34U G38C C55A has what yeast fitness?
a: ≤ 0.5

q: I would be grateful if you could share the reported yeast fitness for C5G A36U G41A .
a: ≤ 0.5

q: Query: yeast fitness; subject: U8G A37U G63C
a: ≤ 0.5

q: Query: yeast fitness; subject: G18A C29U C31A
a: 0.575

q: Quick one: yeast fitness for U16G A65U A70U ?
a: 0.64

q: Look at this variant and give its reported yeast fitness. G9C G50C U53G G67C
a: 0.68

q: If you can, please state the reported yeast fitness value of C34U A42G A65C .
a: 0.57

q: Bench note: what yeast fitness did U3C C4U A15G U26A U32A C62U G67C show?
a: 0.613

q: Fill in: yeast fitness of C11U A45G G52A is ___
a: 0.63

q: Endpoint output: yeast fitness of G18A C34G C46A C62U A69C . Value?
a: ≤ 0.5

q: # lookup: yeast fitness of C4G C11U C33A U59C
a: 0.707

q: Query: yeast fitness; subject: A43G G50C
a: 0.728

q: If you can, please state the reported yeast fitness value of A15U A21G C24U C33U A40C A43C C49U C61U .
a: 0.516

q: Bench note: what yeast fitness did A43C C61G show?
a: 0.66

q: I'd like to know its yeast fitness. The variant in question is G12A U26A C30G C33U
a: ≤ 0.5

q: Fill blank: measured yeast fitness of the variant C4G C11G C55U C61A G68A is ____.
a: ≤ 0.5

q: Fill in: yeast fitness of U35C A40U A42G U47C is ___
a: 0.601

q: Consider the variant shown here: C30U A69U What is its recorded yeast fitness?
a: 0.879

q: Which value of yeast fitness has been reported for U7A A40G in the records?
a: 0.73

q: Reported yeast fitness for C24A U59A C61U : what is it?
a: 0.567

q: Find the recorded yeast fitness belonging to C4G G6C U8G G17A U32C and report it.
a: ≤ 0.5

q: Give its yeast fitness value. Item: U7G G39A C55U G68C
a: 0.594

q: Using the record for G39A A65U , report its yeast fitness.
a: 0.791

q: Entry U2G C30A U35G G51C : reported yeast fitness = ?
a: ≤ 0.5

q: Any idea what yeast fitness was measured for U19G A37G A65U ?
a: 0.61

q: # get_value(readout='yeast fitness', item= C4U U13A A14U C29U A37G )
a: 0.581

q: Value lookup for yeast fitness; key = A36G C49U C61A
a: ≤ 0.5

q: Quick one: yeast fitness for A43G C60U C62U C66U A70C ?
a: ≤ 0.5

q: Field request: yeast fitness | item: C11G C31U G67C
a: 0.632

q: Return reported yeast fitness; argument: G9A G12C C31A C33G A43C A69U A70C
a: ≤ 0.5

q: Quick check: yeast fitness of C30G G38C G52A C55U ?
a: ≤ 0.5

q: Which yeast fitness value belongs to C24G C34G A43U ?
a: ≤ 0.5

q: What measured yeast fitness goes with U3G G51A C66U ?
a: ≤ 0.5

q: # get_value(readout='yeast fitness', item= G10C G12A C33A U35G U47A C55A C61U )
a: ≤ 0.5

q: Requested read-out: yeast fitness. Entry: C31G G38A G52A C61A G63A
a: ≤ 0.5

q: What value of measured yeast fitness is listed for G51A C60A ?
a: 0.599

q: What value of yeast fitness has been reported for the following variant? C5U U28A C30G
a: ≤ 0.5

q: Fill in: yeast fitness of G10C A15G U35A G44A is ___
a: 0.589

q: Give its yeast fitness value. Item: U3A C5A G6C A15G U16A U26G C60G C61U
a: 0.514

q: I'd like to know its yeast fitness. The variant in question is U2C A40C G50A C66U
a: ≤ 0.5

q: What yeast fitness value was documented for this variant, U2A A15C A57U C61U ?
a: 0.504

q: Look up yeast fitness: G18A C31A C60A
a: ≤ 0.5

q: Query (variant): A14C C22U C34A ; field requested: yeast fitness
a: ≤ 0.5

q: Can you share its yeast fitness? I mean this variant: C49U A70C
a: 1.02

q: Look up yeast fitness for this variant: U32C C33U
a: 0.659

q: Quick check: yeast fitness of A20U U26A ?
a: 0.754

q: State the recorded yeast fitness for this entry: A21U A69C A70G
a: 0.594

q: What measured yeast fitness goes with C29U C49U C55G G58A ?
a: ≤ 0.5

q: Requested field: yeast fitness. Item: C24A G48A U53G G63C
a: ≤ 0.5

q: Please report the recorded yeast fitness for G17A C24U C34A A40G C61U A69U .
a: ≤ 0.5

q: Look at this variant and give its reported yeast fitness. C29G U35G C60U
a: ≤ 0.5

q: Request the reported yeast fitness associated with U2A C29A A45U G68C
a: ≤ 0.5

q: Given the variant A20U G44U A57U G58A C66G , what is its reported yeast fitness?
a: 0.518

q: What yeast fitness value was documented for this variant, C4A C55U ?
a: 0.943

q: Which yeast fitness value belongs to C34G G52A C62U ?
a: 0.6

q: Need yeast fitness, item A20C G25C G38C A43G
a: ≤ 0.5

q: What does the record list as yeast fitness for C49A A57U ?
a: 0.55

q: Given the entry C31U U53C C62U , report its measured yeast fitness.
a: ≤ 0.5

q: # lookup: yeast fitness of G6A G25A A45U C62A
a: ≤ 0.5

q: Quick one: yeast fitness of C4U G52A G63C ?
a: 0.595

q: Form field: reported yeast fitness of U28A G50U
a: 0.622

q: Any idea what its yeast fitness is? The variant is C24A A42G G63A U64A
a: ≤ 0.5

q: Item C5A C33A G39C G51C C62U A69C has what recorded yeast fitness?
a: ≤ 0.5

q: Which yeast fitness value belongs to G58C C62G ?
a: 0.755

q: # yeast fitness lookup, item C11U C24G U59A C60A
a: ≤ 0.5

q: Entry under review: C4U C27A C30U A37U C60G . Reported yeast fitness?
a: 0.639

q: Name the reported yeast fitness value associated with the variant G6A U13A C46G
a: ≤ 0.5

q: Requested read-out: yeast fitness. Entry: C30G C33A A36U A65C
a: 0.535

q: Please give the measured yeast fitness for this variant: G6A G48C G58A
a: 0.57

q: # lookup: yeast fitness of A37G A42U A65C A69C
a: ≤ 0.5

q: Recorded yeast fitness for A21C C24U U26A G38C C46G C62U A65C , please?
a: ≤ 0.5

q: May I ask what yeast fitness has been recorded for C4G A42G A45U C66U ?
a: 0.659

q: What value of measured yeast fitness is listed for C5U G6A ?
a: 0.884

q: Form field: reported yeast fitness of C5G G25A
a: 0.981

q: I'd like to know its yeast fitness. The variant in question is G12C U54A A65C
a: ≤ 0.5

q: Data request, read-out yeast fitness, for G39C A42G
a: 0.653

q: What does the data say about its yeast fitness? Entry: U2G A14U A21C A36C C49A A65G C66G
a: ≤ 0.5

q: For the variant shown here, G6C A42G A70U , give the reported yeast fitness.
a: 0.548

q: Reported yeast fitness, variant U32G G41C C46U : ____
a: 0.647

q: Give its yeast fitness value. Item: G9C A20C U47C C66A
a: 0.543

q: Give its yeast fitness value. Item: G12U G39A C66G
a: ≤ 0.5

q: What value of yeast fitness has been recorded for this entry: U2A U13G A40C G41C A57G G63C A65U
a: ≤ 0.5

q: GET /values?readout=yeast fitness&item= A15G C46G G67A
a: 0.623

q: For the variant G6C C11G A15G G68C , what yeast fitness is on record?
a: 0.503

q: Quick one: yeast fitness for U8G G41A C60G ?
a: ≤ 0.5

q: Please report the recorded yeast fitness for U26C U53C A57U C66G .
a: ≤ 0.5

q: Find the recorded yeast fitness belonging to G6A G39U and report it.
a: 0.79

q: I'd like to know its yeast fitness. The variant in question is A20C U54G
a: 0.539
